Source of measurements: patent US20130129739A1

Biological target: T1, rat prolactin receptor (PRLR) on Nb2 lymphoma cells (rat, UniProt P05710 20-610)
T1 construct: whole, on cells; also called rat PRLR
T1 sequence (looked up): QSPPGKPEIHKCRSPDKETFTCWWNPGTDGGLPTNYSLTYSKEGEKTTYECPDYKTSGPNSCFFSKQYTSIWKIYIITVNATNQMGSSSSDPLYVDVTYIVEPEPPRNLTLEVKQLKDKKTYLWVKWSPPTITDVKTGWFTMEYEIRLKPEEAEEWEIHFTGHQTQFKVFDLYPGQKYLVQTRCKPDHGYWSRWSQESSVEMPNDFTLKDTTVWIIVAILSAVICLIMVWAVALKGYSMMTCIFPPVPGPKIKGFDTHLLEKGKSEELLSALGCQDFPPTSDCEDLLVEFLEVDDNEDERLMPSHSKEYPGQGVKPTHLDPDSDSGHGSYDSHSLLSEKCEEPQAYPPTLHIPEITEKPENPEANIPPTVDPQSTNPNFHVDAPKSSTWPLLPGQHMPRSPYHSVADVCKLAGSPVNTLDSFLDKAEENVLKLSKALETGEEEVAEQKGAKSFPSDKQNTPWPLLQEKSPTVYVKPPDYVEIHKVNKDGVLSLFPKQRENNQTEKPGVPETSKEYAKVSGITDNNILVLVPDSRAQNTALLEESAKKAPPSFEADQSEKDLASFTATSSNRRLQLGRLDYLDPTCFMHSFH
Assay: FACS on rat lymphoma cell line Nb2, IgG1
experimental.endpoint: pEC50
Numbers only, as −log10 of the molar value.

HE06.642 (antibody, V domains shown, Human Engineered Novartis antibody (WO2008/022295); tested as human IgG1) VH: EVQLVESGGGLVQPGGSLRLSCAVSGFTFSSYGMSWVRQAPGKGLEWVATVSSGGTYTYYPDSVKGRFTISRDNSKNTLYLQMNSLRAEDTAVYYCARHRGNYYATYYYAMDYWGQGTLVTVSS VL: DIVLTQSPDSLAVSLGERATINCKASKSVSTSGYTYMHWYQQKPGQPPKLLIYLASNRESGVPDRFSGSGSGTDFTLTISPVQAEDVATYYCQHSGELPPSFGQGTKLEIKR ... 9.05
XHA06.642 (antibody, V domains shown, Novartis antibody (WO2008/022295)) VH: EVQLVESGGDLVKPGGSLKLSCAVSGFTFSSYGMSWVRQTPDKRLEWVATVSSGGTYTYYPDSVKGRFTISRDNAKNTLYLQMSSLKSEDSAMYYCARHRGNYYATYYYAMDYWGQGTSVTVSS VL: DIVLTQSPASLAVSLGQGATISCRASKSVSTSGYTYMHWYQQKPGQPPKLLIYLASNLESGVPARFSGSGSGTDFTLNIHPVEEEDAATYYCQHSGELPPSFGGGTKLEIKR ... 8.96
001-E06 (antibody, V domains shown, Tested as human IgG1) VH: QVELLESGGGLVQPGGSLRLSCAASGFTFSSYWMSWVRQAPGKGLEWVSSVSDTGTDTHYADSVKGRFTISRDNSKNTLYLQMNSLRAEDTAVYYCAKTPLAYSSGWYYFDYWGQGTLVTVSS VL: DIVLTQPPSASGTPGQRVTISCSGSSSNIGSNTVNWYQQLPGTAPKLLIYRNYQRPSGVPDRFSGSKSGTSASLAISGLRSEDEADYYCQSYDSSLSGSVFGGGTKLTVLG ... 8.92

API: the following record is the query input.
Requested read-out: pEC50. Entry: 005-C04 (antibody, V domains shown, Tested as human IgG1; also called IgG1 005-C04; 005-004) VH: EVQLLESGGGLVQPGGSLRLSCAASGFTFSSYWMHWVRQAPGKGLEWVSDISSASSYTNYADSVKGRFTISRDNSKNTLYLQMNSLRAEDTAVYYCARGLDARRMDYWGQGTLVTVSS VL: QSVLTQPPSASGTPGQRVTISCTGSSSNIGAGYVVHWYQQLPGTAPKLLIYRNNQRPSGVPDRFSGSKSGTSASLAISGLRSEDEADYYCAAWDDSLNGWLFGGGTKLTVLG
9.30
